PROCEDURE_TEXT: PK mouse
Format: in vivo
RUN_CONDITIONS: plasma, iv, 1 mg/kg, 1 mg/kg iv, unbound clearance, read-out: Cl.u mouse (converted)
REPORTED_METRIC: Unbound clearance

compound=COC1CCN(C2CCN(c3cc(C(=O)NS(=O)(=O)N(C)C)nc4c3c(C3CCC3)nn4-c3ccc(F)cc3)CC2)CC1 result="1110 mL/min/kg"

====

PROCEDURE_TEXT: Hepatocyte stability, human
Format: in vitro ADME
RUN_CONDITIONS: pooled cryopreserved hepatocytes in suspension, read-out: Hep CLint,u human
REPORTED_METRIC: CLint scaled at 1 μM

compound=CN(C)S(=O)(=O)NC(=O)c1cc(N2CCC(N3CCOCC3)CC2)c2c(C3CCC3)nn(-c3ccc(F)cc3)c2n1 result="< 11 mL/min/kg"
